All figures here come from patent US20030059769.

Target: T1, L-selectin (LS-Rg) (Homo sapiens, UniProt P14151 P14151:39-332)
T1 sequence: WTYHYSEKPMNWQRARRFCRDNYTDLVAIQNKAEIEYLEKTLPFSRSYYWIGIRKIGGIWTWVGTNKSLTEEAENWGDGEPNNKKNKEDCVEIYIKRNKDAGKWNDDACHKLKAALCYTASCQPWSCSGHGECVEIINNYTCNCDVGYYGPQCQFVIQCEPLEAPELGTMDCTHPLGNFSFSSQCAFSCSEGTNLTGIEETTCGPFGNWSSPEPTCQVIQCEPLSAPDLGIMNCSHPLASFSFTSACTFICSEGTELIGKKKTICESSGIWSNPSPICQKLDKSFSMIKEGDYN
Experiment: filter; room temperature; Table 13 prints 110 nM (probably pM), 380 pM at 37 C
Conditions: tags: human IgG2 Fc fusion; chain copies: 2 (stated dimer)
resultType: pKd
Entry type: numeric. Quantity: pKd, the -log10 of concentration in molar units.

Q: Give the measured pKd of LD233 (ssDNA) DNA: CTACCTACGATCTGACTAGCCACGACAGAGAACAAGGCGTTAGACGTTATCCGACCACGGCTTACTCTCATGTAGTTCC .
Result: 9.92
